Measured values drawn from patent US20120264685A1 for this set.

Each entry below carries its reported cAMP production (pmol/ml/µg prt) with saturated glucagon peptide, at 100 nM.
Target: human glucagon receptor (human, UniProt P47871 26-477)
Sequence (P47871 26-477): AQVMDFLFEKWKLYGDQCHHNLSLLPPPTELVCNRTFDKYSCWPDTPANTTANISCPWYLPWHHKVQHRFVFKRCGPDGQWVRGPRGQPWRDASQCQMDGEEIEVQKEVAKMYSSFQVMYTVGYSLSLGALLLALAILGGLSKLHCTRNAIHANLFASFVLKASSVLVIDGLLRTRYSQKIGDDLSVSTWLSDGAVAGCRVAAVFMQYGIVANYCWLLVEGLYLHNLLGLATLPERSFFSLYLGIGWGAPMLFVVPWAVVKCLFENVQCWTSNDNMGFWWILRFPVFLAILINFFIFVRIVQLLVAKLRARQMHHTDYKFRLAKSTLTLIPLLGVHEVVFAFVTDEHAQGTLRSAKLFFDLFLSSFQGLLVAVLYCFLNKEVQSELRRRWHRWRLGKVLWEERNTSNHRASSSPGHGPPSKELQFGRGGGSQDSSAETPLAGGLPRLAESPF
Assay: cell-based or functional assay
Where no end group is shown, it is not given here. [ ]: non-standard residue; d: D form. Bip(2'-Et-4'-OMe) = CCc1cc(OC)ccc1-c1ccc(C[C@H](N)C(=O)O)cc1; αMePhe(2,6-F2) = C[C@](N)(Cc1c(F)cccc1F)C(=O)O; αMePhe(2-F) = C[C@](N)(Cc1ccccc1F)C(=O)O; αMeBip(OMe) = alpha-methylated Bip(OMe); hhPhe = N[C@@H](CCCc1ccccc1)C(=O)O; αMeD = C[C@](N)(CC(=O)O)C(=O)O; αMeP = C[C@@]1(C(=O)O)CCCN1; αMeAPPA = not defined here; αMeS = C[C@](N)(CO)C(=O)O; Aib = CC(C)(N)C(=O)O
Use pmol/ml/µg prt as the unit, but write only the number.

| BINDER | VALUE_REPORTED |
| --- | --- |
| VHSEGT[αMePhe(2-F)]T[αMeS]D[αMeBip(OMe)][αMeAPPA] (not fully specified (C-terminus); printed as VHSEGT-(αMe-2FPhe)-T-(αMe-Ser)-D-(αMe-Bip(OMe))-(αMe-APPA); reading uncertain) [Seq. ID. No. 169] | 0 |

Per the record, VH[Aib]EGTFTSD[αMeBip(OMe)][hhPhe] (not fully specified (C-terminus); printed as VH-Aib-EGTFTSD-(αMe-Bip(OMe))-(APPA)) [Seq. ID. No. 13] has cAMP production (pmol/ml/µg prt) with saturated glucagon peptide, at 100 nM of 16

Per the record, VVH[αMeP]QGTFTSD[αMeBip(OMe)][hhPhe] (not fully specified (C-terminus); printed as VVH-(αMe-Pro)-QGTFTSD-(αMe-Bip(OMe))-(APPA)) [Seq. ID. No. 208] has cAMP production (pmol/ml/µg prt) with saturated glucagon peptide, at 100 nM of 0

Per the record, VVH[Aib]EGTFTSD[αMeBip(OMe)][hhPhe] (not fully specified (C-terminus); printed as VVH-Aib-EGTFTSD-(αMe-Bip(OMe))-(APPA)) [Seq. ID. No. 211] has cAMP production (pmol/ml/µg prt) with saturated glucagon peptide, at 100 nM of 2

Per the record, VH[αMeP]QGT[αMePhe(2-F)]T[αMeS]D[αMeBip(OMe)][hhPhe]-NH2 [Seq. ID. No. 44] has cAMP production (pmol/ml/µg prt) with saturated glucagon peptide, at 100 nM of 0

Per the record, VH[Aib]EGTFT[αMeS][αMeD][Bip(2'-Et-4'-OMe)][αMeAPPA] (not fully specified (C-terminus); printed as VH-Aib-EGTFT-(αMe-Ser)-(αMe-Asp)-Bip(OMe)-(αMe-APPA); reading uncertain) [Seq. ID. No. 113] has cAMP production (pmol/ml/µg prt) with saturated glucagon peptide, at 100 nM of 0

Per the record, VHAEGT[αMePhe(2,6-F2)]TSD[αMeBip(OMe)][hhPhe]-NH2 [Seq. ID. No. 30] has cAMP production (pmol/ml/µg prt) with saturated glucagon peptide, at 100 nM of 0

Per the record, VH[Aib]QGT[αMePhe(2-F)]T[αMeS]D[αMeBip(OMe)][αMeAPPA] (not fully specified (C-terminus); reading uncertain) [Seq. ID. No. 167] has cAMP production (pmol/ml/µg prt) with saturated glucagon peptide, at 100 nM of 5
